Recorded measurements of IC50, one per entry
Target: Histone deacetylase 8 (Homo sapiens)
Sequence (Q9BY41 whole entry): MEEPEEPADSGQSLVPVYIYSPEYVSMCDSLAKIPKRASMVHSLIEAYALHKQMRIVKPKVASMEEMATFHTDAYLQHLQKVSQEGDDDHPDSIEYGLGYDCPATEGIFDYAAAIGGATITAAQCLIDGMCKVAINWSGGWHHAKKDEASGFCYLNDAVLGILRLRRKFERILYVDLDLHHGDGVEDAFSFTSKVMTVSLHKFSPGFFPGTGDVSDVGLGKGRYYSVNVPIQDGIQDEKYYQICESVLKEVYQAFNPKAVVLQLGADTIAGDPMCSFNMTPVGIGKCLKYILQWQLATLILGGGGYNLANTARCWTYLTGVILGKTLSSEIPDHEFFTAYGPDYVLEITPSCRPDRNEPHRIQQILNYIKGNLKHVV

Consider the following illustrative entries.
O=C(COc1ccc2c(c1)CN1C(=O)N(c3ccccc3)C(=O)[C@@H]1C2)NO :: > 50 µM
O=C(COc1ccc2c(c1)CN(C(=O)OCc1ccccc1)[C@H](C(=O)NCCc1ccccc1)C2)NO :: 0.58 µM

Problem: What measured IC50 goes with Cc1ccc(NC(=O)[C@@H]2Cc3ccc(OCC(=O)NO)cc3CN2C(=O)OC(C)(C)C)cc1 ?
Solution: 1.65 µM

* * *

Assay system Histone deacetylase 8 (Homo sapiens); read-out recorded as IC50.

Problem: Given the entry Cc1ccc(NC(=O)[C@@H]2Cc3ccc(OCC(=O)NO)cc3CN2)cc1 , what IC50 was observed with Histone deacetylase 8 (Homo sapiens)?
Solution: 3.82 µM

Problem: Please state recorded IC50 (tested on Histone deacetylase 8 (Homo sapiens)) of O=C(COc1ccc2c(c1)CN[C@H](C(=O)Nc1ccc(F)cc1)C2)NO
Solution: 3.23 µM

Problem: Request - read-out IC50 | tested on Histone deacetylase 8 (Homo sapiens) | compound Cc1cccc(NC(=O)[C@@H]2Cc3ccc(OCC(=O)NO)cc3CN2)c1
Solution: 3.62 µM

Problem: Field: IC50 (Histone deacetylase 8 (Homo sapiens)). Entry: Cc1ccccc1NC(=O)[C@@H]1Cc2ccc(OCC(=O)NO)cc2CN1
Solution: 4.13 µM

Problem: Query the reported IC50 for Histone deacetylase 8 (Homo sapiens); item: O=C(COc1ccc2c(c1)CN[C@H](C(=O)Nc1ccc(F)c(Cl)c1)C2)NO
Solution: 3.34 µM

Problem: // lookup IC50 | system=Histone deacetylase 8 (Homo sapiens) | key= O=C(COc1ccc2c(c1)CN1C(=O)N(c3ccc(-c4ccccc4)cc3)C(=O)[C@@H]1C2)NO
Solution: > 50 µM
